Target: T1, Recombinant Human DLL4 (delta-like protein 4) (human, UniProt Q9NR61 27-524)
T1 construct: Bought recombinant human DLL4 (R&D Systems Cat#1506-D4/CF); also called rHuman DLL4; Delta-like 4
Test: ELISA, DLL4 coated on plate, Fab at 0 nM (no-Fab background, first 0 row)
Form field: ELISA signal (one value per entry).

Some binders with known ELISA signal results, for comparison:
Fab VH1-46_IGHD6-6*01_IGHJ1*01 S102A/S103P/S104F/H111F & L6_IGKJ1*01 S30D (Fab, V domains shown, Tested as a Fab; also called APFF & S30D) VH: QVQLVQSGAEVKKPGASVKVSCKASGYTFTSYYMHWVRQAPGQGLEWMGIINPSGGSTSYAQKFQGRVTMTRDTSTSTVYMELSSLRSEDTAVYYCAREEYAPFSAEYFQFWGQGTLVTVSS VL: EIVLTQSPATLSLSPGERATLSCRASQSVDSYLAWYQQKPGQAPRLLIYDASNRATGIPARFSGSGSGTDFTLTISSLEPEDFAVYYCQQRSNWPPWTFGQGTKVEIKR ... 0
Fab VH1-46_IGHD6-6*01_IGHJ1*01 S102A/S103P/S104F/H111F & L6_IGKJ1*01 S28N (Fab, V domains shown, Tested as a Fab; also called APFF & S28N) VH: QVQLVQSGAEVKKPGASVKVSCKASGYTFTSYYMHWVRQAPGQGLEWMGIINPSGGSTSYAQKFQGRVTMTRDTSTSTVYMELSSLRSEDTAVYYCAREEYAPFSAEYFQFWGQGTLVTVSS VL: EIVLTQSPATLSLSPGERATLSCRASQNVSSYLAWYQQKPGQAPRLLIYDASNRATGIPARFSGSGSGTDFTLTISSLEPEDFAVYYCQQRSNWPPWTFGQGTKVEIKR ... 0

Kindly consider the entry below.
ELISA signal in this record for Fab VH1-46_IGHD6-6*01_IGHJ1*01 S102A/S103P/S104F/H111F & L6_IGKJ1*01 S28H (Fab, V domains shown, Tested as a Fab; also called APFF & S28H) VH: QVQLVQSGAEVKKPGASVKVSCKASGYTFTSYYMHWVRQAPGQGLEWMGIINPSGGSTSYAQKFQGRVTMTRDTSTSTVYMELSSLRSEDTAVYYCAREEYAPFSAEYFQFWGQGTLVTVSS VL: EIVLTQSPATLSLSPGERATLSCRASQHVSSYLAWYQQKPGQAPRLLIYDASNRATGIPARFSGSGSGTDFTLTISSLEPEDFAVYYCQQRSNWPPWTFGQGTKVEIKR : 0.01

FYI, the data here is from patent US20120316071A1.
